Origin of the recorded values: ChEMBL document CHEMBL3774328

subject.of.test: ATP-dependent translocase ABCB1 (Homo sapiens)
Sequence (P08183 whole entry): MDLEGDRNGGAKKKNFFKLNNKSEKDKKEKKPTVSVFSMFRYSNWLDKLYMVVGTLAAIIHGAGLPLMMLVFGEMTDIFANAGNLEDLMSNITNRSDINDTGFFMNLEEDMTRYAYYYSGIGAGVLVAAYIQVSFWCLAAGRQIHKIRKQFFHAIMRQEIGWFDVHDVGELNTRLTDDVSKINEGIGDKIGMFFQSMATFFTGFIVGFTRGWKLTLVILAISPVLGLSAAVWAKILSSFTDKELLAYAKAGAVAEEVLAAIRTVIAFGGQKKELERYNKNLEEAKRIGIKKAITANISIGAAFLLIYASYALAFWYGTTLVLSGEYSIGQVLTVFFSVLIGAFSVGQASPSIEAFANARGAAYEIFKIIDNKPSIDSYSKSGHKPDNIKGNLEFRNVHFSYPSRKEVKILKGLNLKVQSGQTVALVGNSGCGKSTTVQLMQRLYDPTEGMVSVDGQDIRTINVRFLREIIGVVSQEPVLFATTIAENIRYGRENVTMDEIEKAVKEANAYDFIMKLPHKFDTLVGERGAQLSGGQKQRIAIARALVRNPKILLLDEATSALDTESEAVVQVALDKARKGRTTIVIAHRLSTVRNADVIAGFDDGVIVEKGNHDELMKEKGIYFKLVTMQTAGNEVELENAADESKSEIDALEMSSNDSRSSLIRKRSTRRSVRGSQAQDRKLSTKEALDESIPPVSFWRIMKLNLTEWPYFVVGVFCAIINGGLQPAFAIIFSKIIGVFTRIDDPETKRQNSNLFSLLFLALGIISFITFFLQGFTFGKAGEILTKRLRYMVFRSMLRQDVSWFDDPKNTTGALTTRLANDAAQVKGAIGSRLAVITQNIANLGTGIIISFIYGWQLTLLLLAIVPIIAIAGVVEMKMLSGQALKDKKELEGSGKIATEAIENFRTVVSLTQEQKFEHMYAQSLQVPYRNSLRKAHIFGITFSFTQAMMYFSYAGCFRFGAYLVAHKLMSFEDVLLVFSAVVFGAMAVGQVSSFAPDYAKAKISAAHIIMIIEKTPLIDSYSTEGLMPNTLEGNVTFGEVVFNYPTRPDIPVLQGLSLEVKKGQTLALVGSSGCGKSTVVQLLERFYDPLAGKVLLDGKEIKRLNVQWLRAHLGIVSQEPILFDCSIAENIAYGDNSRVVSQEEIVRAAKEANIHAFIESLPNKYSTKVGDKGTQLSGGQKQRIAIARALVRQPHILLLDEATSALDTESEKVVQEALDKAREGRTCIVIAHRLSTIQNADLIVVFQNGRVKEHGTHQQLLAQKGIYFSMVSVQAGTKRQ
test: Inhibition of human MDR1 expressed in mouse NIH/3T3 cells assessed as reduction in daunomycin IC50 at 10 uM by MTT assay
Format: cell-based
assay.conditions: nih3t3, 10 µM
Known fold change (FC) of a selection of compounds
I only need the number, thanks.

Given the compound `CC(=O)O[C@H]1CC[C@](C)(O)[C@@]23OC(C)(C)[C@@H](C2=O)[C@H](OC(=O)/C=C/c2ccccc2)[C@H](OC(=O)c2ccccc2)[C@]13C` , what is its reported fold change (FC)?
15.9

Proceed to `CC(=O)O[C@H]1CC[C@](C)(O)[C@]23OC(C)(C)[C@H]([C@H](OC(=O)/C=C/c4ccccc4)[C@H](OC(=O)c4ccccc4)[C@]12C)[C@H]3OC(=O)c1cnccn1`
9

// repeat for `CCC(=O)O[C@@H]1[C@H]2[C@H](OC(=O)/C=C/c3ccccc3)[C@H](OC(=O)c3ccccc3)[C@]3(C)[C@@H](OC(C)=O)CC[C@](C)(O)[C@@]13OC2(C)C` and report
12.4

Same lookup for `CC(=O)O[C@H]1CC[C@](C)(O)[C@]23OC(C)(C)[C@H]([C@H](OC(=O)/C=C/c4ccccc4)[C@H](OC(=O)c4ccccc4)[C@]12C)[C@H]3OC(=O)CCC(=O)N(C(=O)NC1CCCCC1)C1CCCCC1` , please.
24.9

Another compound to look at: `CC(=O)O[C@H]1CC[C@](C)(O)[C@]23OC(C)(C)[C@H]([C@H](OC(=O)/C=C/c4ccccc4)[C@H](OC(=O)c4ccccc4)[C@]12C)[C@H]3OC(=O)c1ccccc1`
17.5
